The following compounds are listed with their measured hERG current change (%, negative = inhibition) at 1uM values.
# tgt: human ether-à-go-go-related gene (hERG) potassium channel (human)
# measurement_notes: primary screen, population patch clamp on CHO cells stably expressing hERG; higher = less effect of the substance
Hit rate of the full screen: of about 310,000 compounds, about 2,200 (0.71%) showed an effect of 50% or more. Effects have a minus sign here. For the sample, strong results were picked, then their nearest neighbours and some compounds at random.
endpoint: hERG current change (%, negative = inhibition) at 1uM (%)

| compound | recorded_value |
| --- | --- |
| CCCCC(=O)Nc1c(-c2ccc(OC)c(OC)c2)c(=O)c2ccccc2n1C | 10.7 |
| OC(COc1ccc(F)cc1Cl)CN1CCc2ccccc2C1 (stereo not shown) | -10.6 |
| Cc1ccc(OCC(O)CN2CCC(Cc3ccccc3)CC2)c(C)c1.Cl (stereo not shown) | -49.9 |
| CC(NC(=O)C1CCC1)c1ccc2c(c1)OCO2 (stereo not shown) | -3.43 |
| CN1C(CC(O)c2ccccc2)CCCC1CC(O)c1ccccc1.Cl (stereo not shown) | -46.3 |
| N#Cc1ccc(S(=O)(=O)NCC(=O)OCC(=O)NCCc2ccccc2)cc1 | 14.7 |
| COc1ccc(-n2c(=O)c3c4c(sc3n3c(=S)[nH]nc23)CCC4)cc1 | 9.01 |
| c1ccc(CNCc2ccc3c(c2)OCO3)nc1 | 11 |
| CC(C)CCC(CCNCc1ccccn1)c1ccc(Cl)cc1 (stereo not shown) | -40.7 |
| CC(=O)Nc1ccc(OCC(O)CN2C(C)CCCC2C)cc1.Cl (stereo not shown) | 15.2 |
| O=C(Nc1nccs1)c1nc[nH]c1C(=O)N1CCc2ccccc2C1 | 3.14 |
| CCN(CC)c1nc2ccccc2c(N)c1-c1ccccc1.O=C(O)C(=O)O | -53.9 |
| CCCCNc1ncnc2sc3c(c12)CCN(CCC)C3 | -80.9 |
| CN1C(CC(=O)c2ccccc2)CCCC1CC(O)c1ccccc1 (stereo not shown) | -55.2 |
| Cc1ccc(C)c(CSC2=NCCN2S(=O)(=O)c2ccccc2)c1 | 7.31 |
| CC(C)CCC(CCNCc1ccccn1)c1ccc2c(c1)OCO2.Cl (stereo not shown) | -79.1 |
| CC1CCCC(C)N1CC(O)COc1ccc(Cl)cc1 (stereo not shown) | -57.6 |
| Cl.OC(COCc1ccccc1)CN1CCN(Cc2ccc3c(c2)OCO3)CC1 (stereo not shown) | -0.707 |
| CN(C)c1nc2ccccc2c(N)c1-c1ccccc1.O=C(O)C(=O)O | -39.7 |
| CN1CCC(N(C)CC(O)c2ccccc2)CC1.O=C(O)C(=O)O (stereo not shown) | 1.81 |
| Cc1cc(Cl)ccc1OCC(O)CN1C(C)CCCC1C.Cl (stereo not shown) | -46.3 |
| COCCCNCCC(CCC(C)C)c1ccc2c(c1)OCO2.Cl (stereo not shown) | -85.8 |

* * *

# tgt: human ether-à-go-go-related gene (hERG) potassium channel (human, UniProt Q12809)
# Sequence (Q12809 whole entry, looked up): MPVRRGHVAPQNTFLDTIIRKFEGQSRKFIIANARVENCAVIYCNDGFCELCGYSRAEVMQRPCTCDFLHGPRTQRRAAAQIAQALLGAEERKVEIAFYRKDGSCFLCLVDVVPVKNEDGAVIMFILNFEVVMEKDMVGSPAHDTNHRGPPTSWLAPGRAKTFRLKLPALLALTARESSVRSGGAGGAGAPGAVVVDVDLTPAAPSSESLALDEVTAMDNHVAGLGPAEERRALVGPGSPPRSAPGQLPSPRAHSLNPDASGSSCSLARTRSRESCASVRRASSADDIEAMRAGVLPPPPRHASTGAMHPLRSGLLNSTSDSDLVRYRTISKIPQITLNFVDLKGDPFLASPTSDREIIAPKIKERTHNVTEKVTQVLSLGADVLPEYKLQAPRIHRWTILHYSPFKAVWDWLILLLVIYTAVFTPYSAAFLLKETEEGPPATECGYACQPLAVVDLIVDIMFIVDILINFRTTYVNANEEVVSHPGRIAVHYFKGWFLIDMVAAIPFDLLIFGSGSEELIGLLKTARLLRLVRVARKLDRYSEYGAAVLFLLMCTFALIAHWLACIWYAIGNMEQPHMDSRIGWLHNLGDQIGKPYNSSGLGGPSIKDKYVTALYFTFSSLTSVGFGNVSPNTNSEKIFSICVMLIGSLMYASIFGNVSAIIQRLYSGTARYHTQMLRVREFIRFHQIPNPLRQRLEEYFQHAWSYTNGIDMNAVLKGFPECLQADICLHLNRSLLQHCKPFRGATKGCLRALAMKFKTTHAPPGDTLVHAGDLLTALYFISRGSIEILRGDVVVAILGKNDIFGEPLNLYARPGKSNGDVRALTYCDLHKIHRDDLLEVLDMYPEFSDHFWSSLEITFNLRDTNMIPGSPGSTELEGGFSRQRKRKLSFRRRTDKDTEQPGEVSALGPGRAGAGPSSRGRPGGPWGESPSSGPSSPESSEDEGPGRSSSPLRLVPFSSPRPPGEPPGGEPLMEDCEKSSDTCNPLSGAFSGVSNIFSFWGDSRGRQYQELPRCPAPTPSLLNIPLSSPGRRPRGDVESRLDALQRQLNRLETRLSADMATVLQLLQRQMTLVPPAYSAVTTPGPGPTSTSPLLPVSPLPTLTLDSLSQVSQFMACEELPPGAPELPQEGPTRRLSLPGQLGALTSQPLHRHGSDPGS
# measurement_notes: primary screen, population patch clamp on CHO cells stably expressing hERG; higher = less effect of the substance
Hit rate of the full screen: of about 310,000 compounds, about 2,200 (0.71%) showed an effect of 50% or more. The effect is printed as a negative number. Shown is part of a subset that was picked to be rich in strong results.
Rule: hERG current change (%, negative = inhibition) at 1uM under 6% gives rule not met, otherwise rule met.

| smiles_text | tgt | group_label |
| --- | --- | --- |
| COc1cc(NC(c2ccccc2)c2ccccc2)cc(OC)c1OC | human ether-à-go-go-related gene (hERG) potassium channel (human, UniProt Q12809) | rule not met |
| Cc1c(F)cccc1NC(=O)CSCC(=O)Nc1ccccc1 | human ether-à-go-go-related gene (hERG) potassium channel (human, UniProt Q12809) | rule not met |
| COc1ccc(OC)c(NC(=O)CSc2nnc(CNC(=O)COc3ccc(Cl)cc3)o2)c1 | human ether-à-go-go-related gene (hERG) potassium channel (human, UniProt Q12809) | rule not met |
| O=C(CCS(=O)(=O)c1cccs1)Nc1ccc(C(=O)NC2CCN(Cc3ccccc3)CC2)cc1 | human ether-à-go-go-related gene (hERG) potassium channel (human, UniProt Q12809) | rule met |
